Sourced from PubChem BioAssay

- assayProtocol: differential killing of epithelial or mesenchymal cells, primary screen, imaging, PC-3E GFP, TEM4-18 mCherry, co-culture (AID 1345086);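 note: cells exposed to compound for 72 h before imaging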
- assayConditions: imaging cell counts, measured here: epithelial PC-3E GFP cell survival, at 1 µM
Entry flag: Criterion met if normalised cell number reaches 1; Criterion not met if it does not.

The following compounds have reported results that may help.
compound: CCC(=O)O[C@]1(C(=O)CCl)[C@@H](C)CC2C3CCC4=CC(=O)C=C[C@]4(C)[C@@]3(F)[C@@H](O)C[C@@]21C (stereo not given in full)
qualitativeLabel: Criterion met

compound: CC1(C)O[C@@H]2CC3C4C[C@H](F)C5=CC(=O)C=CC5(C)C4C(O)CC3(C)[C@]2(C(=O)CO)O1 (stereo not given in full)
qualitativeLabel: Criterion met

compound: O=C(NC1CCCCC1)NC1CCCCC1
qualitativeLabel: Criterion met

compound: CC(=O)Nc1ccc(S(=O)(=O)c2ccc(NC(C)=O)cc2)cc1
qualitativeLabel: Criterion met

compound: C=CCSC[C@@H](N)C(=O)O
qualitativeLabel: Criterion met

compound: Cc1cc2c(CO)cc(O)cc2o1
qualitativeLabel: Criterion not met

compound: COC(=O)[C@@H]1C(O)CC[C@H]2CN3CCc4c([nH]c5ccccc45)[C@@H]3C[C@@H]21 (stereo not given in full)
qualitativeLabel: Criterion not met

compound: C=C1C(=O)OC(C(=O)OC)C1CCCCCCCC(C)O (stereo not given)
qualitativeLabel: Criterion met

## Input Is reported normalised cell number greater than or equal to 1 here: [N-]=[N+]=NC1[C@@H](O)C2OC(c3ccccc3)OCC2O[C@@H]1Sc1ccccc1 (stereo not given in full)
## Output Criterion not met
